- Tested on: HOP-92 NSCLC
- protocolText: NCI-60 one-dose screen, 48 h (100 = growth as untreated, 0 = no growth, -100 = all killed)
- testConditions: 10 µM unless noted
About 83,000 compounds went through this panel and 20% of them were active in at least one assay; those are over-represented in the sample as a whole.
reportedProperty: growth (%)

| compound | assayValue |
| --- | --- |
| N/C(=N/N=C/c1ccncc1)N[N+](=O)[O-] | 115 |
| NC(=O)CNc1ccc([As]=[As]c2ccc(NCC(N)=O)cc2)cc1 (centres undefined) | 63.6 |
| O=C(CCCC1CCCCC1)OCC(Cl)(Cl)Cl | 77.5 |
| CC1CCCC(C[N+](C)(C)C)C1=O (centres undefined) | 83.8 |
| COC(=O)[C@@H](C)C[C@H](Cc1ccccc1)NC(=O)c1csc(CC[C@H](C(C)C)N(C)C(=O)[C@@H](NC(=O)[C@H]2CCCCN2C)C(C)C)n1 | 52.8 |
| COc1cc2ncnc(Nc3ccc(F)c(Cl)c3)c2cc1OCC(=O)N1CCN(C)CC1 | 75.1 |
| CCC[CH2][Sn]([CH2]CCC)([CH2]CCC)[O]c1ccc(Cl)cc1Cl | -84.9 |
| COc1ccc(C(O)(C(=O)O)c2ccc(OC)cc2)cc1 | 95.1 |
| COC(=O)[C@@H](C)C[C@H](Cc1ccccc1)NC(=O)c1csc([C@@H](C[C@H](C(C)C)N(C)C(=O)[C@H](C)NC(=O)[C@H]2CCCCN2C)OC(C)=O)n1 | 40.4 |
